test system: U2OS; test: cell viability relative to DMSO; higher = less toxic; conditions: 72 h; 10000 nM
Please go through the items and note down their cell viability.
Write the figure, then the unit, nothing else.

Previously resolved entries follow.
O=S(=O)(NCCNC/C=C/c1ccc(Br)cc1)c1cccc2cnccc12 :: 90.7%
CS[C@H]1SC[C@H]2C(=O)N(C)[C@@H](C(C)C)C(=O)OC[C@@H](NC(=O)c3cnc4ccccc4n3)C(=O)N[C@@H](C)C(=O)N(C)[C@@H]1C(=O)N(C)[C@@H](C(C)C)C(=O)OC[C@@H](NC(=O)c1cnc3ccccc3n1)C(=O)N[C@@H](C)C(=O)N2C :: 1.8%
CC(=O)Nc1ccc(C(=O)O)cc1 :: 102%
CC(=O)N1CCC(C(=O)N(CCCN2CCC(Cc3ccc(C(N)=O)cc3)CC2)c2ccc(C)c(Cl)c2)CC1 :: 95.3%

Respectfully, I request cell viability for each entry included below.
1. CN1C[C@H](CNC(=O)OCc2ccccc2)C[C@@H]2c3cccc4c3c(cn4C)C[C@H]21
2. CCCCCCCCCCCCCCCC[N+](C)(C)Cc1ccccc1

["95.8%", "14.1%"]

Dear colleague, could you send me cell viability for each of the items below? Thanks.
1. CC(C)N(CC[C@H](c1ccccc1)c1cc(CO)ccc1O)C(C)C [5-hydroxymethyl-tolterodine]
2. NC(=O)C(c1ccccc1)(c1ccc(F)cc1)c1ccc(F)cc1

1: 95.9%; 2: 98.8%
